Data provenance is ChEMBL document CHEMBL2218924.

# target: Tyrosine-protein kinase Fyn (Homo sapiens)
# condition.details: at 10 µM
endpoint: residual activity (%)

> print(dat)
                            molecular.string  unit  experimental.result
 1  COc1cc2ncnc(Nc3ccc(NC(=O)c4ccccc4)cc3)c2cc1OC     %                   48
 2       CCOc1cc2ncnc(Nc3cccc(Br)c3)c2cc1OCC     %                    4
 3               c1ccc2c(-c3ccncc3)c[nH]c2c1     %                   78
 4           Ic1cccc(CSc2nnc(-c3ccncc3)o2)c1     %                   84
 5  O=[N+]([O-])c1ccc(-c2nc(-c3ccc(F)cc3)c(-c3ccncc3)[nH]2)cc1     %                   70
 6  O=c1c2ccccc2[nH]c(=S)n1CCN1CCC(=C(c2ccc(F)cc2)c2ccc(F)cc2)CC1     %                   46
 7             COc1cc2ncc(-c3ccccc3)nc2cc1OC     %                   84
 8       Cc1ccc(NC2=CC(=O)c3sc(C)nc3C2=O)cc1     %                   93
 9  CC(C)n1cnc2/c(=N/c3cccc(Cl)c3)nc(NCCO)[nH]c21     %                    3
10  Cc1cccc(-c2[nH]c(C(C)(C)C)nc2-c2ccc3c(c2)OCO3)n1     %                   93
11  O=C1c2ccccc2-[n+]2ccc3c([nH]c4ccccc43)c21     %                   76
12  NC(=O)c1ccc2[nH]c(-c3ccc(Oc4ccc(Cl)cc4)cc3)nc2c1     %                   86
13  Oc1n[nH]c2nnc(-c3c(-c4ccccc4)nn4ccccc34)cc12     %                   77
14      COc1cc2ncnc(Nc3ccc(O)c(Br)c3)c2cc1OC     %                    9
15         COc1ccc(OC)c2c(=S)c3ccccc3[nH]c12     %                   90
